The reported numbers originate from the supplement of paper PMC10981050.

Listing: cell viability of selected molecules
system: OCI-AML2; test: cell viability relative to vehicle control; higher = less cytotoxic; details: 10 µM; SRSF2 genotype: P95H/wt;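 also: after 48 h exposure read by CellTiter-Glo luminescence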
Counter-ions that a name gives are not always drawn.

[
  {
    "MOLECULE": "NC(N)=N/N=C/c1c(Cl)cccc1Cl [Guanabenz (WY-8678) Acetate]",
    "cell viability, %": 89.6
  },
  {
    "MOLECULE": "NC(=O)C1CCCc2c1[nH]c1ccc(Cl)cc21 (configuration not stated)",
    "cell viability, %": 91.2
  },
  {
    "MOLECULE": "C=C1[C@H](CO)[C@@H](O)C[C@@H]1n1cnc2c(=O)[nH]c(N)nc21 [Entecavir]",
    "cell viability, %": 79.5
  },
  {
    "MOLECULE": "CCN(CC)CC(=O)Nc1c(C)cccc1C [Lidocaine (Alphacaine)]",
    "cell viability, %": 101
  },
  {
    "MOLECULE": "Oc1cc(O)c2c(c1)OC(c1ccc(O)c(O)c1)C(O)C2 (single isomer, unassigned; (+)) [(+)-Catechin hydrate]",
    "cell viability, %": 104
  },
  {
    "MOLECULE": "CN1CCC[C@H]1c1cccnc1 [nicotine ditartrate]",
    "cell viability, %": 95.6
  },
  {
    "MOLECULE": "CCCCC[C@](C)(O)/C=C/[C@@H]1[C@@H](C/C=C\\CCCC(=O)O)[C@@H](O)C[C@H]1O [Carboprost]",
    "cell viability, %": 90.3
  },
  {
    "MOLECULE": "C[C@@H](Nc1cc(F)cc(F)c1)c1cc(C(=O)N(C)C)cc2c(=O)cc(N3CCOCC3)oc12",
    "cell viability, %": 25.5
  },
  {
    "MOLECULE": "NC(=O)[C@@H]1CCCN1C(=O)[C@H](Cc1c[nH]cn1)NC(=O)[C@@H]1CCC(=O)N1 [Protirelin]",
    "cell viability, %": 102
  },
  {
    "MOLECULE": "CNc1ncc2cc(-c3cc(NC(=O)NCCC(C)(C)C)c(F)cc3C)c(C)nc2n1",
    "cell viability, %": 31.7
  },
  {
    "MOLECULE": "NCc1ccc(S(N)(=O)=O)cc1 [Mafenide Acetate]",
    "cell viability, %": 102
  },
  {
    "MOLECULE": "CC(C)Oc1ccc(-c2nc(-c3cccc4c3CC[C@@H]4NCCO)no2)cc1C#N [Ozanimod (RPC1063)]",
    "cell viability, %": 29
  },
  {
    "MOLECULE": "C[C@]12C=CC(=O)N[C@@H]1CC[C@@H]1[C@@H]2CC[C@]2(C)[C@@H](C(=O)Nc3cc(C(F)(F)F)ccc3C(F)(F)F)CC[C@@H]12 [Dutasteride]",
    "cell viability, %": 101
  },
  {
    "MOLECULE": "CC(=O)[C@H]1CC[C@H]2[C@@H]3CCC4=CC(=O)CC[C@]4(C)[C@H]3CC[C@]12C [Progesterone (Prometrium)]",
    "cell viability, %": 54.5
  },
  {
    "MOLECULE": "O=C(O)/C=C/c1ccc(Cn2ccnc2)cc1 [Ozagrel]",
    "cell viability, %": 98.1
  },
  {
    "MOLECULE": "C[C@@H]1CN(c2c(F)c(N)c3c(=O)c(C(=O)O)cn(C4CC4)c3c2F)C[C@H](C)N1 [Sparfloxacin]",
    "cell viability, %": 109
  },
  {
    "MOLECULE": "Clc1cccc(Cl)c1NC1=NCCN1 [Clonidine hydrochloride (Catapres)]",
    "cell viability, %": 115
  }
]

----------
test system: MOLM14; test: cell viability relative to vehicle control; higher = less cytotoxic; details: 10 µM; SRSF2 genotype: SRSF2 wt/wt
Counter-ions that a name gives are not always drawn.

[
  {
    "COMPOUND": "CCC1(c2c[nH]cn2)Cc2ccccc2C1 [Atipamezole hydrochloride]",
    "SYSTEM TESTED": "MOLM14",
    "cell viability": "99.7%"
  },
  {
    "COMPOUND": "CC1C(=O)OC2C(O)C34C5CC(C(C)(C)C)C36C(OC(=O)C6O)OC4(C(=O)O5)C12O (configuration not stated) [Ginkgolide B]",
    "SYSTEM TESTED": "MOLM14",
    "cell viability": "109%"
  },
  {
    "COMPOUND": "CN1CCC(NC(=O)c2cc(-c3c(O)cc(O)cc3Oc3ccc([N+](=O)[O-])cc3)on2)CC1",
    "SYSTEM TESTED": "MOLM14",
    "cell viability": "1.87%"
  },
  {
    "COMPOUND": "O=C1Nc2ccc(CN3C(=O)CSC3=O)cc2/C1=C/c1cc(CN2CCOCC2)c[nH]1",
    "SYSTEM TESTED": "MOLM14",
    "cell viability": "100%"
  },
  {
    "COMPOUND": "O=c1ccc2ccc(O)cc2[nH]1 [7-Hydroxycarbostyril]",
    "SYSTEM TESTED": "MOLM14",
    "cell viability": "101%"
  },
  {
    "COMPOUND": "CCCCCCNC(=O)Nc1ccc(S(=O)(=O)Nc2ccc(CCNC[C@H](O)COc3ccc(O)cc3)cc2)cc1",
    "SYSTEM TESTED": "MOLM14",
    "cell viability": "75.4%"
  },
  {
    "COMPOUND": "CC12CCC(CC1=O)C2(C)C (configuration not stated) [Camphor]",
    "SYSTEM TESTED": "MOLM14",
    "cell viability": "104%"
  },
  {
    "COMPOUND": "CC(C)COc1ccc(CNC(=O)N(Cc2ccc(F)cc2)C2CCN(C)CC2)cc1 [Pimavanserin]",
    "SYSTEM TESTED": "MOLM14",
    "cell viability": "0.22%"
  },
  {
    "COMPOUND": "Cc1cc(C)nc(NS(=O)(=O)c2ccc(NC(=S)NC(=O)COc3ccc(Br)cc3Cl)cc2)n1",
    "SYSTEM TESTED": "MOLM14",
    "cell viability": "91.1%"
  },
  {
    "COMPOUND": "O=c1cc(-c2ccc(O[C@@H]3O[C@H](CO)[C@@H](O)[C@H](O)[C@H]3O)cc2)oc2cc(O)c([C@@H]3O[C@H](CO)[C@@H](O)[C@H](O)[C@H]3O[C@@H]3OC[C@H](O)[C@H](O)[C@H]3O)c(O)c12 [Vaccarin]",
    "SYSTEM TESTED": "MOLM14",
    "cell viability": "100%"
  },
  {
    "COMPOUND": "CCOC(=O)C=Cc1ccc(OC)cc1 [Ethyl 4-Methoxycinnamate]",
    "SYSTEM TESTED": "MOLM14",
    "cell viability": "84.5%"
  },
  {
    "COMPOUND": "COc1cc2nc(N3CCCN(C)CC3)nc(NC3CCN(Cc4ccccc4)CC3)c2cc1OC",
    "SYSTEM TESTED": "MOLM14",
    "cell viability": "0.26%"
  },
  {
    "COMPOUND": "Cc1ccc(C(=O)c2cc(O)c(O)c([N+](=O)[O-])c2)cc1 [Tolcapone]",
    "SYSTEM TESTED": "MOLM14",
    "cell viability": "109%"
  },
  {
    "COMPOUND": "Cc1cnc(Nc2ccc(OCCN3CCCC3)cc2)nc1Nc1cccc(S(=O)(=O)NC(C)(C)C)c1",
    "SYSTEM TESTED": "MOLM14",
    "cell viability": "0.58%"
  },
  {
    "COMPOUND": "Nc1ccc(C(=O)O)c(O)c1 [Sodium 4-Aminosalicylate]",
    "SYSTEM TESTED": "MOLM14",
    "cell viability": "88.1%"
  },
  {
    "COMPOUND": "O=c1cc(-c2ccc(O)cc2)oc2cc(O)c(O)c(O)c12 [Scutellarein]",
    "SYSTEM TESTED": "MOLM14",
    "cell viability": "103%"
  },
  {
    "COMPOUND": "CN(C)CCOc1ccc(/C(=C(/CCCl)c2ccccc2)c2ccccc2)cc1 [Toremifene Citrate (Fareston, Acapodene)]",
    "SYSTEM TESTED": "MOLM14",
    "cell viability": "55.7%"
  }
]
